// provenance: the Human Domainome abundance scans (Beltran et al. 2025)

B1: Glucocorticoid receptor, residues 419 to 494; numbered along this chain, P04150 (parent)
chain: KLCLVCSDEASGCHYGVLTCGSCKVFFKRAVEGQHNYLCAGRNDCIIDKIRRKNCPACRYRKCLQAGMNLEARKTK

Variants of: B1
Protocol Description: abundance fitness (aPCA) (normalised: wild type 0, dead -1); higher = more abundant; growth selection in yeast, the domain comes from the species named
Measurement Context: Homo sapiens
Label 1 when abundance fitness is at or above -0.02; otherwise label -1.

Field: example entries. Status: answers known.
>>> label_class("KLCLVCSDEASGCHYGVLTCGSCKVFFKRAVEGQHNYLCAGRNDCIIDKIRRKNCPACRYRKCLQAGMNLEARKGK")
1
>>> label_class("KLCLVCSYEASGCHYGVLTCGSCKVFFKRAVEGQHNYLCAGRNDCIIDKIRRKNCPACRYRKCLQAGMNLEARKTK")
-1

Ask | hey, is abundance fitness for this one >= -0.02? `KLCLVCSDEASRCHYGVLTCGSCKVFFKRAVEGQHNYLCAGRNDCIIDKIRRKNCPACRYRKCLQAGMNLEARKTK`
Reply | -1

Ask | hey, is abundance fitness for this one >= -0.02? `KLCLVCSDEASGCPYGVLTCGSCKVFFKRAVEGQHNYLCAGRNDCIIDKIRRKNCPACRYRKCLQAGMNLEARKTK`
Reply | -1

Ask | hey, is abundance fitness for this one >= -0.02? `KLCLVCSDEASGCHYGVLTCGSCKVFFKRAVEGQHNYLCAGRNDCIIDKIRRKNCPACRYRKTLQAGMNLEARKTK`
Reply | -1

Ask | hey, is abundance fitness for this one >= -0.02? `TLCLVCSDEASGCHYGVLTCGSCKVFFKRAVEGQHNYLCAGRNDCIIDKIRRKNCPACRYRKCLQAGMNLEARKTK`
Reply | -1

Ask | hey, is abundance fitness for this one >= -0.02? `KLCLVCSDEASGCHYGVLTCGSCKVFFKRAVEGQHNYLCALRNDCIIDKIRRKNCPACRYRKCLQAGMNLEARKTK`
Reply | 1

Ask | hey, is abundance fitness for this one >= -0.02? `KLCLVCSDEASGCHYGVLTCGSCKVFFKRAVEGQHNYLCIGRNDCIIDKIRRKNCPACRYRKCLQAGMNLEARKTK`
Reply | -1

Ask | hey, is abundance fitness for this one >= -0.02? `KLCLPCSDEASGCHYGVLTCGSCKVFFKRAVEGQHNYLCAGRNDCIIDKIRRKNCPACRYRKCLQAGMNLEARKTK`
Reply | -1

Ask | hey, is abundance fitness for this one >= -0.02? `KLDLVCSDEASGCHYGVLTCGSCKVFFKRAVEGQHNYLCAGRNDCIIDKIRRKNCPACRYRKCLQAGMNLEARKTK`
Reply | -1

Ask | hey, is abundance fitness for this one >= -0.02? `KLMLVCSDEASGCHYGVLTCGSCKVFFKRAVEGQHNYLCAGRNDCIIDKIRRKNCPACRYRKCLQAGMNLEARKTK`
Reply | -1

Ask | hey, is abundance fitness for this one >= -0.02? `KLCLVCSDEASGCHYGVLTCGSCKVFFKRGVEGQHNYLCAGRNDCIIDKIRRKNCPACRYRKCLQAGMNLEARKTK`
Reply | -1

Ask | hey, is abundance fitness for this one >= -0.02? `KLCLVCSDEASGCHYGVLTCGSCKVFFKRAVEGQHNYLCAGRNDCIIDKIRRKNCPACRYRKCLQAGMNLEARNTK`
Reply | 1

Ask | hey, is abundance fitness for this one >= -0.02? `KLCLVCSDEASGCHYGVLTCGSCKVFFKRAVEGQHNYLCAGRNDCIIDKIRRKNCPACRYRKCLQAGMNLEAIKTK`
Reply | -1

Ask | hey, is abundance fitness for this one >= -0.02? `KLCLVCSDEASGCHYGVLTCGSCKVFFKRAVEGQHNYLCATRNDCIIDKIRRKNCPACRYRKCLQAGMNLEARKTK`
Reply | -1

Ask | hey, is abundance fitness for this one >= -0.02? `KLCLVCSDEASGCHYGVLTCGSCKVFFKRAVEGQHNYLCAGRNDCIIDKIRRKNCPACAYRKCLQAGMNLEARKTK`
Reply | -1

Ask | hey, is abundance fitness for this one >= -0.02? `KLRLVCSDEASGCHYGVLTCGSCKVFFKRAVEGQHNYLCAGRNDCIIDKIRRKNCPACRYRKCLQAGMNLEARKTK`
Reply | -1

Ask | hey, is abundance fitness for this one >= -0.02? `KLCLVCSDEASGCHYGVLTCGSCKVFFKRAVEGQHNYLCAGRNDCIIDKIRRKNCPACRYRKCLNAGMNLEARKTK`
Reply | -1

Ask | hey, is abundance fitness for this one >= -0.02? `KLCLVCSDEASGCHYGVLTCGSCKVFFKRAVEGQHNYLCAGRNDRIIDKIRRKNCPACRYRKCLQAGMNLEARKTK`
Reply | -1

Ask | hey, is abundance fitness for this one >= -0.02? `KLCLVCSDEASGCQYGVLTCGSCKVFFKRAVEGQHNYLCAGRNDCIIDKIRRKNCPACRYRKCLQAGMNLEARKTK`
Reply | -1

Ask | hey, is abundance fitness for this one >= -0.02? `KLCLVCSDEASDCHYGVLTCGSCKVFFKRAVEGQHNYLCAGRNDCIIDKIRRKNCPACRYRKCLQAGMNLEARKTK`
Reply | 1
